Target sequence: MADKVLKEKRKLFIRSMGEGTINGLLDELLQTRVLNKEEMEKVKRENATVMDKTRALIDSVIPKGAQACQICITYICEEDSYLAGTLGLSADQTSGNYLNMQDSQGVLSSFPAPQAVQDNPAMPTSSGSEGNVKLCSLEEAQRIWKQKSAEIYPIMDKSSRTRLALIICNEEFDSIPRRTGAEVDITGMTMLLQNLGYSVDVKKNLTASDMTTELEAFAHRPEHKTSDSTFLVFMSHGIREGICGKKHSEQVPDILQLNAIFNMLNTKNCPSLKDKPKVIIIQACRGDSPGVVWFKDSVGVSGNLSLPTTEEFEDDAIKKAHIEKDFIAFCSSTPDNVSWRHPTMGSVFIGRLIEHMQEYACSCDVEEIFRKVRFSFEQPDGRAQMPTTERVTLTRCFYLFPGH
MEASURE NAME: IC50 (nM)

[1] CC(=O)N[C@@H](Cc1ccc(O)cc1)C(=O)N[C@H](C(=O)N[C@@H](C)C(=O)NC(CC(=O)O)C(=O)CCCCCc1ccccc1)C(C)C (stereo partly drawn)
[2] CCCCC(C(=O)N[C@@H](CC(=O)O)C(=O)COc1ccccc1)n1cncc(NC(=O)c2cccc3ccccc23)c1=O (stereo partly drawn)
[3] CC(C)[C@H](NC(=O)OCc1ccccc1)C(=O)N[C@@H](C)C(=O)NC(CC(=O)O)C(=O)COc1cc2ccccc2cc1C(N)=O (stereo partly drawn)
Input line: With the 3 compounds above, produce a list ordered by ascending IC50. Please, when replying, give the labels in the order that was requested.
Output line: 3, 1, 2
(3: 1.7 nM, 1: 18.5 nM, 2: 46 nM)

---

ASSAYED TARGET: Caspase-1 (Homo sapiens, UniProt P29466)
Sequence (P29466 whole entry): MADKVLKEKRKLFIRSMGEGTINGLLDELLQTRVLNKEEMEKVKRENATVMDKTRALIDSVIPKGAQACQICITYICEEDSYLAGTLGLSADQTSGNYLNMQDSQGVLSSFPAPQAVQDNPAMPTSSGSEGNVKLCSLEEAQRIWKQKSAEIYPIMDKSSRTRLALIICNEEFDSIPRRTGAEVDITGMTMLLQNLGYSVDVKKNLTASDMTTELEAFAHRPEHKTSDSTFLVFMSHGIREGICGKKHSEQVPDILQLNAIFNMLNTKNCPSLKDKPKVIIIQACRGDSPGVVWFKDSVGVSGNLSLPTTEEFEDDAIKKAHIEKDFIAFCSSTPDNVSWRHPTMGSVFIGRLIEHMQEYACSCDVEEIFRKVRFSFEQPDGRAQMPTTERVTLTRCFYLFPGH
RUN DESCRIPTION: Dissociation constant for inhibition of caspase-1
Where a SMILES comes first, the peptide text is derived from it. [ ]: non-standard residue; d: D form. βAla = NCCC(=O)O
MEASURE NAME: Ki (nM)

INSERT INTO results (compound, assayed_target, units_text, quantitative_readout) VALUES
  ('O=C[C@H](CC(=O)O)NC(=O)C1CCC2CCC(NC(=O)OCc3ccccc3)C(=O)N21 (some centres not stated)', 'Caspase-1 (Homo sapiens, UniProt P29466)', 'nM', 36),
  ('CC(=O)N[C@@H](Cc1ccc(O)cc1)C(=O)N[C@H](C(=O)N[C@@H](C)C(=O)NCCC(=O)O)C(C)C (Ac-YVA[βAla]-OH)', 'Caspase-1 (Homo sapiens, UniProt P29466)', 'nM', 200000),
  ('CC(C)[C@H](NC(=O)c1ccc2ccccc2c1)C(=O)N1CCC[C@H]1C(=O)NC(C=O)CC(=O)NS(C)(=O)=O (some centres not stated)', 'Caspase-1 (Homo sapiens, UniProt P29466)', 'nM', 38),
  ('CC(=O)N[C@@H](Cc1ccc(O)cc1)C(=O)N[C@H](C(=O)N1CC(O)C[C@H]1C(=O)NC(C=O)CC(=O)O)C(C)C (some centres not stated)', 'Caspase-1 (Homo sapiens, UniProt P29466)', 'nM', 2),
  ('O=C[C@H](CC(=O)O)NS(=O)(=O)c1ccccc1OCCc1cccc2ccccc12', 'Caspase-1 (Homo sapiens, UniProt P29466)', 'nM', 62);

[a] CC(=O)N[C@@H](Cc1ccc(O)cc1)C(=O)N[C@H](C(=O)N[C@@H](C)C(=O)NC(C=O)CC(=O)O)C(C)C (some centres not stated)
[b] CC(C)[C@H](NC(=O)OCc1ccccc1)C(=O)N[C@@H](C)C(=O)NC(CC(=O)O)C(=O)COc1ccc2ccc(=O)oc2c1 (some centres not stated)
Input line: Lab note: check whether a or b has the lower measured Ki. Your choice should be expressed through its label.
Output line: a
(a: 0.76 nM, b: 17 nM)

---

ASSAYED TARGET: Caspase-1 (Homo sapiens, UniProt P29466)
Sequence (P29466 whole entry): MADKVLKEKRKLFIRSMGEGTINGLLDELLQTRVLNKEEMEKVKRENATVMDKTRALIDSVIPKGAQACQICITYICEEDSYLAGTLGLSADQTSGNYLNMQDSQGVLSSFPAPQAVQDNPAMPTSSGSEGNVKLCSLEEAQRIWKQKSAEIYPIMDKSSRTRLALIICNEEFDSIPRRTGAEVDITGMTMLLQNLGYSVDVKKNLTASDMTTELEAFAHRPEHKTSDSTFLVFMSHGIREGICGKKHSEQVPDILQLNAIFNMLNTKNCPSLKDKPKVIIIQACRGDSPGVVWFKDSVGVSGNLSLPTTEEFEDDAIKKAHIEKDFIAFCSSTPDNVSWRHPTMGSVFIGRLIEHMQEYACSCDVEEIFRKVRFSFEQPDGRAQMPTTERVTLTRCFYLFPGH
RUN DESCRIPTION: Compound was evaluated for the inhibitory activity against caspase-1
MEASURE NAME: Ki (µM)

These solved cases illustrate the format of a correct answer.
INSERT INTO results (line_notation, units_text, quantitative_readout) VALUES
  ('CC(C)[C@H](NC(=O)OCc1ccccc1)C(=O)N[C@@H](C)C(=O)N[C@@H](CC(=O)O)C(=O)c1ncc[nH]1', 'µM', 8.8),
  ('CC(C)[C@H](NC(=O)OCc1ccccc1)C(=O)N[C@@H](C)C(=O)N[C@@H](CC(=O)O)C(=O)c1nccs1', 'µM', 10);

[A] CC(C)[C@H](NC(=O)OCc1ccccc1)C(=O)N[C@@H](C)C(=O)N[C@@H](CC(=O)O)C(=O)c1ncco1
[B] CC(C)[C@H](NC(=O)OCc1ccccc1)C(=O)N[C@@H](C)C(=O)N[C@@H](CC(=O)O)C(=O)c1nc(-c2ccccc2)c[nH]1
[C] CC(C)[C@H](NC(=O)OCc1ccccc1)C(=O)N[C@@H](C)C(=O)N[C@@H](CC(=O)O)C(=O)c1ncc(-c2ccccc2)o1
Input line: In this exercise, place the 3 compounds in ascending sequence of their recorded Ki. Please, when replying, give the labels in the order that was requested.
Output line: C, B, A

Values were extracted from ChEMBL document CHEMBL1133635.
